Numbers sourced from patent US8497383B2.

# tested-on: UniProt:P04585
Hi all, reminder that labels come from IC50, split as bin A = under 0.2 nM, bin B = from 0.2 nM up to 4 nM, bin C = 4 nM and over

Consider the worked cases shown below.
{"compound": "COC(=O)N[C@H](C(=O)NCCN(C)[C@@H]1CNC[C@H]1N(CCC(C)C)S(=O)(=O)c1ccc(N)cc1)C(c1ccccc1)c1ccccc1 [Example 10]", "assigned-class": "bin C"}
{"compound": "COC(=O)N[C@H](C(=O)N[C@@H](C)CN[C@@H]1CNC[C@H]1N(CCC(C)C)S(=O)(=O)c1ccc(N)cc1)C(c1ccccc1)c1ccccc1 [Example 2]", "assigned-class": "bin A"}
{"compound": "COC(=O)N[C@H](C(=O)NCCN[C@@H]1CNC[C@H]1N(Cc1ccccc1)S(=O)(=O)c1ccc(N)cc1)C(c1ccccc1)c1ccccc1 [Example 9]", "assigned-class": "bin C"}
{"compound": "COC(=O)N[C@H](C(=O)NC(C)(C)CN[C@@H]1CNC[C@H]1N(CCC(C)C)S(=O)(=O)c1ccc(N)cc1)C(c1ccccc1)c1ccccc1 [Example 6]", "assigned-class": "bin A"}
{"compound": "COC(=O)N[C@H](C(=O)NCCC[C@@H]1CNC[C@H]1N(CCC(C)C)S(=O)(=O)c1ccc(N)cc1)C(c1ccccc1)c1ccccc1 (relative stereo) [Example 12]", "assigned-class": "bin A"}
{"compound": "COC(=O)N[C@H](C(=O)NCCN[C@@H]1CNC[C@H]1N(CC(C)C)S(=O)(=O)c1ccc(N)cc1)C(c1ccccc1)c1ccccc1 [Example 7]", "assigned-class": "bin B"}
{"compound": "COC(=O)N[C@H](C(=O)N[C@H](CN[C@@H]1CNC[C@H]1N(CCC(C)C)S(=O)(=O)c1ccc(N)cc1)CC(C)C)C(c1ccccc1)c1ccccc1 [Example 5]", "assigned-class": "bin B"}
{"compound": "COC(=O)N[C@H](C(=O)NCCN[C@@H]1CNC[C@H]1N(CCC(C)C)S(=O)(=O)c1ccc(N)cc1)C(c1ccccc1)c1ccccc1 [Example 1]", "assigned-class": "bin B"}
{"compound": "CCCCC(CN[C@@H]1CNC[C@H]1N(CCC(C)C)S(=O)(=O)c1ccc(N)cc1)NC(=O)[C@@H](NC(=O)OC)C(c1ccccc1)c1ccccc1 (stereo partly drawn) [Example 4]", "assigned-class": "bin B"}
{"compound": "COC(=O)N[C@H](C(=O)NCCN[C@@H]1CNC[C@H]1N(CCC(C)C)S(=O)(=O)c1ccc(CO)cc1)C(c1ccccc1)c1ccccc1 [Example 11]", "assigned-class": "bin B"}

## Input Class for CC[C@@H](CN[C@@H]1CNC[C@H]1N(CCC(C)C)S(=O)(=O)c1ccc(N)cc1)NC(=O)[C@@H](NC(=O)OC)C(c1ccccc1)c1ccccc1 [Example 3] ?
## Output bin B

## Input Field: class (IC50) — entry: COC(=O)N[C@H](C(=O)NCCN[C@@H]1CNC[C@H]1N(C(C)C)S(=O)(=O)c1ccc(N)cc1)C(c1ccccc1)c1ccccc1 [Example 8]
## Output bin C
